test system: 695427-040-R-J1-PDC complex spheroids, viability percent T/C; assay: Anticancer human tumor 695427-040-R-J1-PDC patient-derived colon adenocarcinoma cell line growth inhibition [GQUAD]; details: second compound 0.1 µM; first compound 0.316 µM; hits give low values
Assignment: determine reported viability, T/C for the given compounds.

Noted for CC[C@@]1(O)C(=O)OCc2c1cc1n(c2=O)Cc2cc3c(CN(C)C)c(O)ccc3nc2-1 + Cc1[nH]c2ccc(F)cc2c1-c1nc2c3cccnc3c3ncccc3c2[nH]1 : its viability, T/C reads 89.8%

# viability, T/C (compound: COc1ncnc(C2CC2)c1-c1ncc2cnn(Cc3ccc(-c4nc(C(F)(F)F)cn4C(C)C)cc3)c2n1 + CN(C)c1ccc(Nc2c3ccc(NC(=O)CCN4CCCC4)cc3nc3cc(NC(=O)CCN4CCCC4)ccc23)cc1 ) is 91.1%

The recorded viability, T/C for entry COc1cc(C2c3cc4c(cc3C(OC3OC5COC(C)OC5C(O)C3O)C3COC(=O)C23)OCO4)cc(OC)c1O (stereo not given) + Cc1[nH]c2ccc(F)cc2c1-c1nc2c3cccnc3c3ncccc3c2[nH]1 equals 113%

# compound CC1COCCN1c1cc(C2(S(C)(=N)=O)CC2)nc(-c2ccnc3[nH]ccc23)n1 (stereo not given) + Cc1[nH]c2ccc(F)cc2c1-c1nc2c3cccnc3c3ncccc3c2[nH]1 ; its viability, T/C = 102%

compound C=CCn1c(=O)c2cnc(Nc3ccc(N4CCN(C)CC4)cc3)nc2n1-c1cccc(C(C)(C)O)n1 + CN(C)c1ccc(Nc2c3ccc(NC(=O)CCN4CCCC4)cc3nc3cc(NC(=O)CCN4CCCC4)ccc23)cc1 , viability, T/C observed: 93.2%

---

test system: 695427-040-R-J1-PDC complex spheroids, viability percent T/C; assay: Anticancer human tumor 695427-040-R-J1-PDC cell line growth inhibition [GQUAD]; conditions: second compound 1 µM; first compound 0.316 µM; hits give low values;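 further: spheroids exposed to compounds for seven days before readout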
So I've got a bunch of compounds here, and I need their viability, T/C values.
Please give a number only; it is taken to be in %.

Input COc1cccc2c1C(=O)c1c(O)c3c(c(O)c1C2=O)CC(O)(C(=O)CO)CC3OC1CC(N)C(O)C(C)O1 (stereo unspecified) + CN(C)c1ccc(Nc2c3ccc(NC(=O)CCN4CCCC4)cc3nc3cc(NC(=O)CCN4CCCC4)ccc23)cc1 . Output viability, T/C: 81.5

Short answer for Cn1ncnc1[C@H]1c2n[nH]c(=O)c3cc(F)cc(c23)N[C@@H]1c1ccc(F)cc1 + CN(C)c1ccc(Nc2c3ccc(NC(=O)CCN4CCCC4)cc3nc3cc(NC(=O)CCN4CCCC4)ccc23)cc1 : viability, T/C was 87.3

Entry COc1ncnc(C2CC2)c1-c1ncc2cnn(Cc3ccc(-c4nc(C(F)(F)F)cn4C(C)C)cc3)c2n1 + Cc1[nH]c2ccc(F)cc2c1-c1nc2c3cccnc3c3ncccc3c2[nH]1 — recorded viability, T/C = 101

So, O=c1[nH]cc(F)c(=O)[nH]1 + Cc1[nH]c2ccc(F)cc2c1-c1nc2c3cccnc3c3ncccc3c2[nH]1 ? Its viability, T/C was 76.2

Lookup result for CC1COCCN1c1cc(C2(O)CC3CCC(C2)O3)c2cnn(-c3ccn[nH]3)c2n1 (stereo unspecified) + CN(C)c1ccc(Nc2c3ccc(NC(=O)CCN4CCCC4)cc3nc3cc(NC(=O)CCN4CCCC4)ccc23)cc1 ; measured viability, T/C: 67.1

The recorded viability, T/C for entry CC(C)(O)C1CCC(Nc2ccc3ncc(-c4cccc(C(F)(F)F)c4)n3n2)CC1 (stereo unspecified) + Cc1[nH]c2ccc(F)cc2c1-c1nc2c3cccnc3c3ncccc3c2[nH]1 equals 96.8

Entry O=C(c1cc(Cc2n[nH]c(=O)c3ccccc23)ccc1F)N1CCN(C(=O)C2CC2)CC1 + CN(C)c1ccc(Nc2c3ccc(NC(=O)CCN4CCCC4)cc3nc3cc(NC(=O)CCN4CCCC4)ccc23)cc1 , viability, T/C reported as 98.5

Consider O=c1[nH]cc(F)c(=O)[nH]1 + Cc1cnc(CNC(=O)c2c(=O)c3ccc(N4CCCN(C)CC4)nc3n3c2sc2ccccc23)cn1 . Its measured viability, T/C is 63.8

Entry under test: Cc1[nH]c2ccccc2c1CCNCc1ccc(/C=C/C(=O)NO)cc1 + Cc1cnc(CNC(=O)c2c(=O)c3ccc(N4CCCN(C)CC4)nc3n3c2sc2ccccc23)cn1 . Its viability, T/C was 39

The compound O=C(NO)c1cnc(N2CCN(S(=O)(=O)c3ccc4ccccc4c3)CC2)nc1 + CN(C)c1ccc(Nc2c3ccc(NC(=O)CCN4CCCC4)cc3nc3cc(NC(=O)CCN4CCCC4)ccc23)cc1 showed viability, T/C equal to 62.3

Lab note: COc1cccc2c1C(=O)c1c(O)c3c(c(O)c1C2=O)CC(O)(C(=O)CO)CC3OC1CC(N)C(O)C(C)O1 (stereo unspecified) + Cc1[nH]c2ccc(F)cc2c1-c1nc2c3cccnc3c3ncccc3c2[nH]1 gave viability, T/C of 78.8
